Where do the numbers come from? From PubChem BioAssay (NCI).

- Tested on: U251 CNS
- measurementDescription: NCI-60 one-dose screen, 48 h (100 = growth as untreated, 0 = no growth, -100 = all killed)
- reportedConditions: 10 µM unless noted
This is part of a sample that, as a whole, favours compounds with a hit. Of some 83,000 tested, about 20% had one in any assay. The source made the active and inactive calls. How the source made its calls: active means growth percent below 10; inactive means the rest.
reportedProperty: growth

{"compound": "COc1ccc(C(=O)/C=C/Nc2cc(-c3ccccc3)nn2-c2ccccc2)cc1", "growth": "93.2% (inactive)"}

Please report growth for every entry that follows.
1. CCOC(=O)c1c(C)n2c(=O)cc(C)c3c(OC(C)=O)c(OC(C)=O)cc1c32
2. CN1C(=O)N(C)C2C1NN=c1s/c(=C\c3ccccc3F)c(=O)n12 (centres undefined)

[out]
1: 50.9% (inactive); 2: 14.5% (inactive)

Please report growth for every entry that follows.
1. C=C(CNCCO)[C@@H]1CC[C@]2(CO)CC[C@]3(C)[C@H](CC[C@@H]4[C@@]5(C)CCC(NCCO)C(C)(C)[C@@H]5CC[C@]43C)[C@@H]12 (some centres undefined)
2. COc1ccc(-c2nc(SCCC(C)C)nc(N/N=C(/C)c3ccc(N)cc3)c2C#N)cc1
3. CS(=O)(=O)c1cccc(Nc2ncc3cc(-c4ccccc4Cl)ccc3n2)c1
4. Cc1ccc(C2(C)NC(=O)N(CC(=O)Nc3cccc(C)c3)C2=O)cc1 (centres undefined)
5. CCCCCN(CCCCC)CC(O)c1c(Cl)ccc2ccccc12 (centres undefined)
6. O=C1NC(=O)C(=Cc2cc(-c3ccc(Cl)cc3)n(-c3ccccc3)n2)C(=O)N1

[out]
31.4% (inactive)
90.3% (inactive)
16.6% (inactive)
99.1% (inactive)
80.3% (inactive)
96.7% (inactive)

Please report growth for every entry that follows.
1. Cc1c(C)c2c(c(C)c1OC(=O)CCC(=O)[O-])CCC(C)(CCCCCCCCCCC[P+](c1ccccc1)(c1ccccc1)c1ccccc1)O2 (centres undefined)
2. CCCN1C2CCC1/C(=C\c1ccc(OC)cc1)C(=O)/C2=C/c1ccc(OC)cc1
3. CCOC(=O)c1c(NC(=S)Nc2ccc([N+](=O)[O-])cc2)sc2c1CCCCC2
4. CCOC(=O)CC1CSC(N/N=C(/C)c2cccc(C(F)(F)F)c2)=N1 (centres undefined)
5. Cc1ccc(OCCOCCOCCOCCOc2ccc(C)n(O)c2=S)c(=S)n1O
6. O=C(/C=C/C12c3ccccc3C(c3ccccc31)C1C(=O)NC(=O)C12)c1cccs1 (centres undefined)
7. Cc1nc2c(c(-c3ccccc3)n1)Cc1c(ccc3ccccc13)O2

[out]
-70.1% (active)
70.3% (inactive)
76.6% (inactive)
98.4% (inactive)
9.43% (active)
15.8% (inactive)
102% (inactive)

###

- System: NCI/ADR-RES ovarian
- measurementDescription: NCI-60 one-dose screen, 48 h
- reportedConditions: 10 µM unless noted
The panel holds about 83,000 compounds, 20% with a hit somewhere; the sample as a whole holds those more often. Activity calls are given as the source filed them. The calls were made as follows: active = growth percent below 10; inactive = the rest.
// allowed return values: class 1 (active), class 0 (inactive)

{"compound": "COc1cccc(C(=O)Nc2cccc(NC(=O)c3ccccn3)c2)c1", "answerLabel": "class 0"}

[in] What call does the record list for "Oc1cccc2c1NCCC2" ?
[out] class 0

[in] Now consider "Cc1nc2ccccc2c(/C=C/c2ccc(Br)cc2)c1C(=O)/C=C/c1ccccc1" and answer again.
[out] class 1

[in] Now consider "O=C1NC(=O)C(=Cc2cc(-c3ccc(Cl)cc3)n(-c3ccccc3)n2)C(=O)N1" and answer again.
[out] class 0

[in] Now consider C=CCOC(=O)C1=C(C)N(CC)C(=O)N(CC)C1c1c(Cl)n(C)c2ccccc12 (centres undefined) and answer again.
[out] class 0

###

Please provide measured growth for the entries that follow.
- System: UACC-257 melanoma
- measurementDescription: NCI-60 one-dose screen, 48 h (100 = growth as untreated, 0 = no growth, -100 = all killed)
- reportedConditions: 10 µM unless noted
About 83,000 compounds went through this panel and 20% of them were active in at least one assay; those are over-represented in the sample as a whole.
Numbers only, in %.

Would you please look over these solved cases?
{"compound": "CCN1CCN(C(=O)[C@]23CC[C@@H](C)[C@H](C)[C@@H]2C2=CC[C@@H]4[C@@]5(C)C/C(=C/c6ccncc6)C(=O)C(C)(C)[C@@H]5CC[C@@]4(C)[C@]2(C)CC3)CC1", "growth, %": 25.6}
{"compound": "O=C1Nc2ccccc2/C1=C/c1cccn1CCCCCCn1c2ccccc2c(=O)c2ccccc21", "growth, %": 110}
{"compound": "C#CCOc1ccc(C2=NN(CCCC)C3N=C(Cl)c4ncn(CCCC)c4N23)cc1OCC#C (centres undefined)", "growth, %": 85.7}

[in] # get_value(readout='growth', item= "N#Cc1nn(-c2ccccn2)c(N)c1C#N" )
[out] 103

###

- System: A498 renal
- measurementDescription: NCI-60 one-dose screen, 48 h
- reportedConditions: 10 µM unless noted
The panel holds about 83,000 compounds, 20% with a hit somewhere; the sample as a whole holds those more often. Calls of active or inactive are those of the source. The calls were made as follows: active = growth percent below 10; inactive = the rest.
// allowed return values: Y (active), N (inactive)

Solved entries:
{"compound": "Cc1cc(N2CCOCC2)nc(N(CCCNc2ccnc3cc(Cl)ccc23)Cc2ccc3c(c2)OCO3)n1", "experimentalSystem": "A498 renal", "answerLabel": "Y"}
{"compound": "O=C(/C=C/C12c3ccccc3C(c3ccccc31)C1C(=O)NC(=O)C12)c1cccs1 (centres undefined)", "experimentalSystem": "A498 renal", "answerLabel": "N"}
{"compound": "Fc1ccc(/C=C/c2cc(/C=C/c3ccc(F)cc3)n(-c3cc(F)cc(F)c3)n2)cc1", "experimentalSystem": "A498 renal", "answerLabel": "N"}
{"compound": "CC1OC(C(=O)N2CCN(CCO)CC2)CC1COC1CCCCC1 (centres undefined)", "experimentalSystem": "A498 renal", "answerLabel": "N"}
{"compound": "Cc1nc2ccccc2c(/C=C/c2ccc(Br)cc2)c1C(=O)/C=C/c1ccccc1", "experimentalSystem": "A498 renal", "answerLabel": "N"}
{"compound": "COc1cc2cc(Oc3ccc(NC(=O)Nc4ccc(F)c(C(F)(F)F)c4)cc3)c(C)nc2cc1OCCN1CCCCC1", "experimentalSystem": "A498 renal", "answerLabel": "N"}
{"compound": "CN1CCN(Cc2ccc(NC(=O)c3cc(C#Cc4cnc(N)c5ncccc45)n(C)n3)cc2C(F)(F)F)CC1", "experimentalSystem": "A498 renal", "answerLabel": "N"}
{"compound": "CCOC(=O)c1c(C)nc2c(c1N)C(=O)C(=O)N2CCc1ccc(OC)c(OC)c1", "experimentalSystem": "A498 renal", "answerLabel": "N"}
{"compound": "Cc1[nH]c(C(=O)Nc2ccc(C(N)=O)cc2OC(C)C)c(Cl)c1Cl", "experimentalSystem": "A498 renal", "answerLabel": "N"}
{"compound": "O=C1CC2C=CCN2C=C1NC(=O)c1ccccc1 (centres undefined)", "experimentalSystem": "A498 renal", "answerLabel": "N"}

Turning now to a further compound:
[in] What call does the record list for "CCOC(=O)c1c(Nc2nc3ccccc3s2)sc2c1CCC(=O)C2" ?
[out] N

###

- Test system: HS 578T breast
- measurementDescription: NCI-60 one-dose screen, 48 h (100 = growth as untreated, 0 = no growth, -100 = all killed)
- reportedConditions: 10 µM unless noted
About 83,000 compounds went through this panel and 20% of them were active in at least one assay; those are over-represented in the sample as a whole.
Record true (1) whenever growth is at 60% or higher; record false (0) when lower.

[in] hey, is growth for this one >= 60%? CC1(C)CC(=O)C2=C(C1)OC(C(=O)c1ccccc1)C2c1cccc(Oc2ccccc2)c1 (centres undefined)
[out] true (1)

[in] Now consider "COc1ccc(-c2cc(-c3ccc(Cl)cc3)c(C#N)c(=O)n2CCCCC(=O)NO)cc1" and answer again.
[out] true (1)

[in] Now consider "CN1CCN(Cc2ccc(NC(=O)c3cncc(C#Cc4cnc(N)c5ncccc45)c3)cc2Cl)CC1" and answer again.
[out] true (1)

[in] Now consider "O=C1CCc2c(sc3[nH]c(=S)n(-c4cc(C(F)(F)F)cc(C(F)(F)F)c4)c(=O)c23)C1" and answer again.
[out] false (0)

[in] Now consider "COc1cc(/C=C2\C(=O)N(CCOc3cc(O)c4c(=O)cc(-c5ccccc5)oc4c3)c3ccccc32)cc(OC)c1O" and answer again.
[out] false (0)

[in] Now consider CSc1nc(N)c2c(n1)NC(c1ccccc1)C1CCc3ccccc3C1=N2 (centres undefined) and answer again.
[out] true (1)

[in] Now consider "Cc1nc2ccccc2c(/C=C/c2ccc(Br)cc2)c1C(=O)/C=C/c1ccccc1" and answer again.
[out] false (0)
